Give pest or weed control at 2500 g/ha for every item shown.
- Test system: Roggen
- assayName: Growth inhibition in cereals, greenhouse tray test, sprayed at 3-leaf stage
- Assay type: in vivo
- testParameters: 2,5 kg/ha; % of growth increment of untreated controls; read-out: Wuchsshemmung in % bei Roggen
Only the number, expressed in %, is required.

Problem: // query pest or weed control at 2500 g/ha value for entry "CCc1cccc(CC)c1-n1cncc1C(=O)ON=C1CCCCC1"
Solution: 27

Problem: Reported pest or weed control at 2500 g/ha for "CCc1cccc(CC)c1-n1cncc1C(=O)ON=C(C)C" : what is it?
Solution: 27

Problem: Consider the compound "CCc1cccc(CC)c1-n1cncc1C(=O)OC(=O)c1cncn1-c1c(CC)cccc1CC" and give its measured pest or weed control at 2500 g/ha.
Solution: 31

Problem: Entry "CCc1cccc(CC)c1-n1cncc1C(=O)ON1C(=O)c2ccccc2C1=O" : reported pest or weed control at 2500 g/ha = ?
Solution: 27

Problem: Find the recorded pest or weed control at 2500 g/ha belonging to "CCc1cccc(CC)c1-n1cncc1C(=O)NN(C)C" and report it.
Solution: 25

Problem: Item "CCc1cccc(CC)c1-n1cncc1C=NO" has what recorded pest or weed control at 2500 g/ha?
Solution: 24

Problem: Which pest or weed control at 2500 g/ha is reported for this compound? "CCc1cccc(CC)c1-n1cncc1C(N)=NO"
Solution: 25

Problem: Param item = "CCc1cccc(CC)c1-n1cncc1C(=O)NS(=O)(=O)c1ccccc1Cl" ; retrieve measured pest or weed control at 2500 g/ha.
Solution: 27
